B1: tRNA (parent)
chain: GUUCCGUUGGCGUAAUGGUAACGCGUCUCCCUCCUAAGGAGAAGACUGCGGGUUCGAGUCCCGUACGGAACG

Variants of: B1
Assay: yeast fitness relative to wild type (ratio to wild type); higher = fitter; tRNA-Arg(CCU), competitive growth, 37 C, YPD
Fewer inactive variants are shown than the library holds.
measure: yeast fitness
Quick one: just the number, no unit, thanks!

Some entries whose results are on file:
mutation-label	assay-result
U3A C33U	0.791
C24G A45G	0.637
U13A A20G	0.888

Problem: Identify measured yeast fitness associated with U3G G67A
Result: 0.846

Problem: Identify measured yeast fitness associated with G12A C33A U54G A70C
Result: 0.541

Problem: Identify measured yeast fitness associated with A36C G56C A57C
Result: 0.593

Problem: Identify measured yeast fitness associated with A40U G50A
Result: 0.801

Problem: Identify measured yeast fitness associated with C62G A69U
Result: 0.839

Problem: Identify measured yeast fitness associated with U7G G9A
Result: 0.827

Problem: Identify measured yeast fitness associated with C5U C27G G68C
Result: 0.577

Problem: Identify measured yeast fitness associated with A36U G63A
Result: 0.672

Problem: Identify measured yeast fitness associated with U13A G41A G68C
Result: 0.504

Problem: Identify measured yeast fitness associated with G25A A43C A70C
Result: 0.824

Problem: Identify measured yeast fitness associated with U16A A57U C66U
Result: 0.528

Problem: Identify measured yeast fitness associated with U13G A57C
Result: 0.599

Problem: Identify measured yeast fitness associated with G10C A42G
Result: 0.57

Problem: Identify measured yeast fitness associated with A15G G51A A70U
Result: 0.533
